- System: HIV with mutations in the HIV protease sequence
- protocol description: Phenotypic fold resistance to protease inhibitors, protease mutations 84A/84L/84C/54M/54L/54V in a background (Examples 8-13)
- Assay type: cell-based, HIV-1
- test conditions: Virco ID V052954; genotype 33F + 77I + 90M; vs mean IC50 of wild type laboratory HIV strain
observable: Fold change in IC50

| smiles entry | Fold change in IC50 |
| --- | --- |
| CC(C)CN(C[C@@H](O)[C@H](Cc1ccccc1)NC(=O)O[C@H]1CCOC1)S(=O)(=O)c1ccc(N)cc1 | 2.1 fold |
| CC(C)(C)NC(=O)[C@@H]1C[C@@H]2CCCC[C@@H]2CN1C[C@@H](O)[C@H](Cc1ccccc1)NC(=O)[C@H](CC(N)=O)NC(=O)c1ccc2ccccc2n1 | 1.7 fold |
| Cc1c(O)cccc1C(=O)N[C@@H](CSc1ccccc1)[C@H](O)CN1C[C@H]2CCCC[C@H]2C[C@H]1C(=O)NC(C)(C)C | 5.9 fold |
| CC(C)c1nc(CN(C)C(=O)N[C@H](C(=O)N[C@@H](Cc2ccccc2)C[C@H](O)[C@H](Cc2ccccc2)NC(=O)OCc2cncs2)C(C)C)cs1 | 2.2 fold |

Could you now look at the following compound, please?
[in] # Fold change in IC50 lookup, item `CC(C)(C)NC(=O)[C@@H]1CN(Cc2cccnc2)CCN1C[C@@H](O)C[C@@H](Cc1ccccc1)C(=O)N[C@H]1c2ccccc2C[C@H]1O`
[out] 1.7 fold
